# protocol_text: in vivo
# Parameters: species or system Yorkshire pigs
# experimental_setup: female, Yorkshire, pig, sc, Subcut Tmax
Where a name gives a salt, the structure may show the parent alone.
readout_name: Tmax (min)
Reply with just the number (in min).

Please report the measured Tmax for CC(C)C[C@H](NC(=O)CNC(=O)[C@H](Cc1ccc(O)cc1)NC(=O)[C@H](CO)NC(=O)[C@H](Cc1c[nH]c2ccccc12)NC(=O)[C@H](Cc1cnc[nH]1)NC(=O)[C@@H]1CCC(=O)N1)C(=O)N[C@@H](CCCNC(=N)N)C(=O)N1CCC[C@H]1C(=O)NCC(N)=O [GnRH, gonadorelin hydrochloride]
19

---

# protocol_text: Pulsatile transdermal iontophoresis of GnRH in pigs, plasma PK (Example 1)
# Format: in vivo, Yorkshire pigs
# experimental_setup: female, Yorkshire, pig, in vivo, Tmax
Structures can show the parent of a compound that is named as a salt.
readout_name: Tmax (min)
Entry rule: numbers only, all in min.

In one line, give reported Tmax of the entry CC(C)C[C@H](NC(=O)CNC(=O)[C@H](Cc1ccc(O)cc1)NC(=O)[C@H](CO)NC(=O)[C@H](Cc1c[nH]c2ccccc12)NC(=O)[C@H](Cc1cnc[nH]1)NC(=O)[C@@H]1CCC(=O)N1)C(=O)N[C@@H](CCCNC(=N)N)C(=O)N1CCC[C@H]1C(=O)NCC(N)=O [GnRH, gonadorelin hydrochloride] .
20
